# Tested on: biotinyl-Leu-oxazolone
# experiment-summary: self-aminoacylation, catalytic enhancement (BLO) (fold over background); higher = more active; k-Seq, kA / k0A0; sequences stand for … in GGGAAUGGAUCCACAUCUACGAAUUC…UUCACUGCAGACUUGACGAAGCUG
Variants at the floor of the assay were thinned out.
# if value of self-aminoacylation reaches 5, tag Criterion met; if it stays below, tag Criterion not met

Qu. Hi team, for CCACACUUUAAGCAAUCAGUC [Fam1B.1 aminoacylation ribozyme variant] , is the recorded self-aminoacylation at or above 5?
Ans. Criterion not met

Qu. # bool: self-aminoacylation of CCACAUUUCAAGCAAUCGUUC [Fam1B.1 aminoacylation ribozyme variant] >= 5
Ans. Criterion not met

Qu. Could you verify whether the entry CUACUUCAAACAAUCCGUCCG [Fam1A.1 aminoacylation ribozyme variant] shows self-aminoacylation of no less than 5?
Ans. Criterion not met

Qu. Quick check: does AAGUUUGCUAAUAUUGGCAAG [Fam3.1 aminoacylation ribozyme variant] have self-aminoacylation greater than or equal to 5?
Ans. Criterion not met

Qu. Reported self-aminoacylation reaches at least 5 for AUGACCCUGGUAAUCGAGUGA [Fam2.1 aminoacylation ribozyme variant] ?
Ans. Criterion met

Qu. Reported self-aminoacylation at or above 5? CUACAGCAAACAAUCGGUCUG [Fam1A.1 aminoacylation ribozyme variant]
Ans. Criterion not met

Qu. Can AAGUUUGCUAGUUGUCGCAAG [Fam3.1 aminoacylation ribozyme variant] be said to have self-aminoacylation at or above 5?
Ans. Criterion not met

Qu. Would you say UUUACCCUGAUCAUCGAGUGA [Fam2.1 aminoacylation ribozyme variant] shows self-aminoacylation at minimum 5?
Ans. Criterion met

Qu. In plain terms: is recorded self-aminoacylation at least 5 for AAGUUUGCGAAAAGUCGCAAG [Fam3.1 aminoacylation ribozyme variant] ?
Ans. Criterion not met

Qu. Please tell me: is the sequence AUUACCCUGGUGAUCCAGUGA [Fam2.1 aminoacylation ribozyme variant] at or over 5 in terms of self-aminoacylation?
Ans. Criterion met

Qu. Could you verify whether the entry AUUCACCUGGGUCAUCCGGUG [Fam2.2 aminoacylation ribozyme variant] shows self-aminoacylation of no less than 5?
Ans. Criterion met

Qu. Hello, I need to know if UUUCACCUAAGUCAUCGGGUG [Fam2.2 aminoacylation ribozyme variant] has measured self-aminoacylation not below 5. Thanks!
Ans. Criterion met

Qu. // inclusive: self-aminoacylation at least 5? input: AUUACCUUGGUCAUAGAGUGA [Fam2.1 aminoacylation ribozyme variant]
Ans. Criterion met

Qu. Confirm if self-aminoacylation reported for the sequence AUUCACCUAAGUCAUUGGGUG [Fam2.2 aminoacylation ribozyme variant] is 5 or above.
Ans. Criterion not met

Qu. Form field: self-aminoacylation at least 5? Entry: CUUCUUCAAACACUCGGUCUG [Fam1A.1 aminoacylation ribozyme variant]
Ans. Criterion not met

Qu. Is self-aminoacylation at least 5? Consider CUACUUCAGAGAAUCGGUCUG [Fam1A.1 aminoacylation ribozyme variant]
Ans. Criterion not met

Qu. Quick check, self-aminoacylation >= 5? AUUACCCUGGUCAUCGAGUUG [Fam2.1 aminoacylation ribozyme variant]
Ans. Criterion not met

Qu. # check: self-aminoacylation of AUUACCCAGGUCUUCGAGUGA [Fam2.1 aminoacylation ribozyme variant] is greater than or equal to 5
Ans. Criterion met

* * *

Kindly state self-aminoacylation for each of the entries shown.
# Tested on: biotinyl-Trp-oxazolone
# experiment-summary: self-aminoacylation, catalytic enhancement (BWO) (fold over background); higher = more active; k-Seq, kA / k0A0; sequences stand for … in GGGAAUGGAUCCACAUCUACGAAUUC…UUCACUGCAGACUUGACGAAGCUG
Variants at the floor of the assay were thinned out.
Please give the numeric answer without any surrounding text.

Qu. What does the record list as self-aminoacylation for CUUCUUCAAACACUCGGUCUG [Fam1A.1 aminoacylation ribozyme variant] ?
Ans. 0.901

Qu. GET /values?readout=self-aminoacylation&item= CUACUUCAAACAAGCUGUCUG [Fam1A.1 aminoacylation ribozyme variant]
Ans. 0.356

Qu. Recorded self-aminoacylation for CUACUUCAAACACUCUGUCUG [Fam1A.1 aminoacylation ribozyme variant] , please?
Ans. 0.678

Qu. What does the record list as self-aminoacylation for AUUCAUCUAGCUCAUCGGGUG [Fam2.2 aminoacylation ribozyme variant] ?
Ans. 2.3

Qu. Can you share its self-aminoacylation? I mean this sequence: AUGACCCUGGUGAUCGAGUGA [Fam2.1 aminoacylation ribozyme variant]
Ans. 5

Qu. Returns the measured self-aminoacylation for the input sequence. Input: AUUCAACUAGGUCAUCGGGUA [Fam2.2 aminoacylation ribozyme variant]
Ans. 2.89

Qu. Please report the recorded self-aminoacylation for AAGUUUCCUAAUAGUCGCUAG [Fam3.1 aminoacylation ribozyme variant] .
Ans. 1.97

Qu. Please give the measured self-aminoacylation for this sequence: AUCACCCUGGUCAGCGAGUGA [Fam2.1 aminoacylation ribozyme variant]
Ans. 10.5

Qu. Query: self-aminoacylation; subject: CUAUUUCAAACAGUCGGUCUG [Fam1A.1 aminoacylation ribozyme variant]
Ans. 0.682

Qu. Returns the measured self-aminoacylation for the input sequence. Input: CCACACUUCUAGCAAUCAGUC [Fam1B.1 aminoacylation ribozyme variant]
Ans. 0.459

Qu. Give the measured self-aminoacylation of CUACUACAAACAAUCGGUCAG [Fam1A.1 aminoacylation ribozyme variant] .
Ans. 0.537

Qu. For AUUGACAUAGGUCAUCGGGUG [Fam2.2 aminoacylation ribozyme variant] , what is its reported self-aminoacylation?
Ans. 8.04

Qu. State the recorded self-aminoacylation for this entry: AAGUUUGCUAUUGGUCGCAAG [Fam3.1 aminoacylation ribozyme variant]
Ans. 0.66

Qu. So what's the measured self-aminoacylation for this one? AUUAUCCUUGUCAUCGAGUGA [Fam2.1 aminoacylation ribozyme variant]
Ans. 8.67

Qu. Look up self-aminoacylation for this sequence: CUACUUCAAACAAUCUUUCUG [Fam1A.1 aminoacylation ribozyme variant]
Ans. 2.33

Qu. Find the recorded self-aminoacylation belonging to AUUACCAAGGUCAUCGAGUGA [Fam2.1 aminoacylation ribozyme variant] and report it.
Ans. 9.76

Qu. Which self-aminoacylation reading was recorded for the sequence CAACACUUCAAGCAAUCAGUC [Fam1B.1 aminoacylation ribozyme variant] ?
Ans. 4.78

Qu. Item under review: CGACUUCAAACAAUCGCUCUG [Fam1A.1 aminoacylation ribozyme variant] . Reported self-aminoacylation?
Ans. 3.07

Qu. Need self-aminoacylation of AAGCUUGCUAAUAGUCGCACG [Fam3.1 aminoacylation ribozyme variant] , thanks.
Ans. 1.33

Qu. Given the sequence AUUACCCGUGUCAUCGAGUGA [Fam2.1 aminoacylation ribozyme variant] , what is its reported self-aminoacylation?
Ans. 10.7

Qu. Look at this sequence and give its reported self-aminoacylation. AUUACCUUGGUCAUCGAUUGA [Fam2.1 aminoacylation ribozyme variant]
Ans. 0.601

Qu. Looking for the measured self-aminoacylation of CCGCACUUCAAGCGAUCGGUC [Fam1B.1 aminoacylation ribozyme variant] , can you help?
Ans. 4.81

Qu. Any idea what self-aminoacylation was measured for AUUACCCUGGUCACCGAGUGA [Fam2.1 aminoacylation ribozyme variant] ?
Ans. 9.22

Qu. Fill in the blank: the reported self-aminoacylation of AAGUUUGCUAAGAGUUGCAAG [Fam3.1 aminoacylation ribozyme variant] is ____.
Ans. 0.97

Qu. I am curious: what self-aminoacylation value has been reported for CCACACUUAAAGCAAACGGUC [Fam1B.1 aminoacylation ribozyme variant] ?
Ans. 0.578

Qu. Look up self-aminoacylation for this sequence: UAGUCUGCUAAUAGUCGCAAG [Fam3.1 aminoacylation ribozyme variant]
Ans. 9.92

Qu. I have this sequence here, CUUCUUCAAACAAUCGGCCUG [Fam1A.1 aminoacylation ribozyme variant] , and I need its recorded self-aminoacylation.
Ans. 28.5

Qu. What value of self-aminoacylation has been recorded for this entry: AUUACCCUAGUCAUCGAGUGC [Fam2.1 aminoacylation ribozyme variant]
Ans. 0.589

Qu. Consider the sequence shown here: AUUACCCUGGUCAUCGAAUAA [Fam2.1 aminoacylation ribozyme variant] What is its recorded self-aminoacylation?
Ans. 1.41

Qu. Which value of self-aminoacylation has been reported for CAACACUUCAAGCGAUCGGUC [Fam1B.1 aminoacylation ribozyme variant] in the records?
Ans. 1.81

Qu. Item CUACUUCAAAGAAUCAGUCUG [Fam1A.1 aminoacylation ribozyme variant] has what recorded self-aminoacylation?
Ans. 1.7

Qu. Returns the measured self-aminoacylation for the input sequence. Input: CAACUUCAAACGAUCGGUCUG [Fam1A.1 aminoacylation ribozyme variant]
Ans. 2.65

Qu. Consider the sequence shown here: AUGCACCUAGGUAAUCGGGUG [Fam2.2 aminoacylation ribozyme variant] What is its recorded self-aminoacylation?
Ans. 3.25

Qu. Given the entry CUAGUUCAAACAAUCGGUCUC [Fam1A.1 aminoacylation ribozyme variant] , report its measured self-aminoacylation.
Ans. 5.9

Qu. Quick check: self-aminoacylation of AAGUUUGCUAAUAGUCGCCCG [Fam3.1 aminoacylation ribozyme variant] ?
Ans. 3.76
